- target-under-test: T1, recombinant human Fc-PD-1 protein (human, UniProt Q15116 25-170)
- T1 construct: may be the same protein as the PD-1 Fc fusion of the Luminex assays; also called recombinant human PD-1 in an Fc fusion construct; not shown: Fc part not described
- T1 sequence (Q15116 25-170): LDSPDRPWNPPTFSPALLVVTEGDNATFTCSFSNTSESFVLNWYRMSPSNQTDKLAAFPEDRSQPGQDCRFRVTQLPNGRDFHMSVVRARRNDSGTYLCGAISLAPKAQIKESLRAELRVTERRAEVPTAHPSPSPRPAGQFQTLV
- experiment-description: Biacore, Fab, human Fc-PD-1
observation-type: Kd (nM)
Please state the figure in nM; there is no need to write the unit.

A35797 (Fab, V domains shown, humanized Fab clone of 137F2; also called humanized antibody A35797) VH: EVQLVQSGAEVKKHGESLKISCKGSGYSFTNYWIGWVRQATGQGLEWMGDIYPGGGYTNYNEKFKGRVTITADKSTSTAYMELSSLRSEDTAVYYCARGYDFVLDRWGQGTTVTVSS VL: DIQMTQSPSSLSASVGDRVTITCKSSQSLFNSETQKNYLAWYQQKPGQPPKLLIYWASTRESGVPSRFSGSGSGTDFTLTISSLQPEDFATYYCKQSYTLRTFGGGTKLEIK; 0.802

Moving on to the next binder.
Problem: For the binder shown here, A35795 (Fab, V domains shown, humanized Fab clone of 137F2; also called humanized antibody A35795) VH: QVQLVQSGAEVKKPGASVKVSCKASGYTFTNYWIGWVRQAPGQGLEWMGDIYPGGGYTNYNEKFKGRVTITADKSTSTAYMELSSLRSEDTAVYYCARGYDFVLDRWGQGTTVTVSS VL: DVVMTQSPAFLSVTPGEKVTITCKSSQSLFNSETQKNYLAWYQQKPGQAPRLLIYWASTRESGVPSRFSGSGSGTDFTLTISSLQPEDFATYYCKQSYTLRTFGGGTKLEIK , give the reported Kd.
Result: 0.797

The origin of these recorded values is patent US20220259315A1.
